B1: HDV Ribozyme (parent)
chain: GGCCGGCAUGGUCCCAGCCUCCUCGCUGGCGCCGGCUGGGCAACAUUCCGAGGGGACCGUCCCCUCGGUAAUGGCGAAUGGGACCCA

- Variants of: B1
- test.name: self-cleavage, relative activity (ratio to wild type); higher = more cleavage; co-transcriptional
Decision: self-cleavage compared against 0.2; not below it gives Fulfilled, below it gives Not fulfilled.

GGCCGGCAUGGUCCCAGCCUCCUCGCUGGCGCCGGCUGGGCAACAUUCCGAGGGAACCGUCCCCUCGGUAACGGCGAAUGGGACCCA [G55A U72C]; Fulfilled
GGCCGGCAUGGUCCCAGCCUCGUCGCUGGCGCCGGCUGGACAACAUUCCGAGGGGACCGUCCCCUCGGUAAUGGCGAAUGGGACCCA [C22G G40A]; Not fulfilled
GGCCGACAUGGUCCCAGCCUCCUCGCAGGCGCCGGCUGGGCAACAUUCCGAGGGGACCGUCCCCUCGGUAAUGGCGAAUGGGACCCA [G6A U27A]; Fulfilled
GGCCGGCACGGUCCCAGCCUCCUCGCUGGCGCCGGCUGGGCAACAUUCCGAGGGGACCGUCCCCUCGGUAAUGUCGAAUGGGACCCA [U9C G74U]; Fulfilled
GGCCGGCAUGUUUCCAGCCUCCUCGCUGGCGCCGGCUGGGCAACAUUCCGAGGGGACCGUCCCCUCGGUAAUGGCGAAUGGGACCCA [G11U C13U]; Not fulfilled
GGCCGGCAUGGUCCCAGCCUCCUCGCUGGCGCCGGGUGGGCAACAUUCCGAGGGGACCGUCCCCUCGGUUAUGGCGAAUGGGACCCA [C36G A70U]; Not fulfilled
GGCCGGCAUGGUCCCAGCCUACUCGCUGGCGCCGGCUGGGCAACAUUCCGAGGCGACCGUCCCCUCGGUAAUGGCGAAUGGGACCCA [C21A G54C]; Not fulfilled
GGCCGGCAUGGUCCCAGCCUCCUCGCUUACGCCGGCUGGGCAACAUUCCGAGGGGACCGUCCCCUCGGUAAUGGCGAAUGGGACCCA [G28U G29A]; Not fulfilled
GGCCGGCAUGGUCCCAGCCUCCUCGCUGGCGCCGGCGGGGCAACAUUCCGAGGGGCCCGUCCCCUCGGUAAUGGCGAAUGGGACCCA [U37G A56C]; Not fulfilled
GGCCGACAUGGUCCCAGCCUCCUCGCUGGCGCCGGCAGGGCAACAUUCCGAGGGGACCGUCCCCUCGGUAAUGGCGAAUGGGACCCA [G6A U37A]; Fulfilled
GGCCGGCAUGGUCCCAGCCUCCUCGCUGGCGCCGGCUGGGCAACAUUCCGAGGGGUCCGUCCCCUCGGUAAUGGCUAAUGGGACCCA [A56U G76U]; Fulfilled
GGCCGGCAUGGUUCCAGCCUCCUCGCUGGCGCCGGCUGGGCAUCAUUCCGAGGGGACCGUCCCCUCGGUAAUGGCGAAUGGGACCCA [C13U A43U]; Not fulfilled
GGCCGGCAUGGUCCCAGCCUCCUCGCUGGCGCCGGCUGGGCAACAUUCCGAGCGGAACGUCCCCUCGGUAAUGGCGAAUGGGACCCA [G53C C57A]; Fulfilled
GGCCGGCAUGGUCCCAGCCUCCUCGGUGGCGCCGGCUGGGCAACAUUCCGAGGGAACCGUCCCCUCGGUAAUGGCGAAUGGGACCCA [C26G G55A]; Fulfilled
GGCCGGCAUGGUCCCAGCCUCCUCGCUGGCGCCGGCUGGGCAACAUUCCGAGGAGACCGUCCACUCGGUAAUGGCGAAUGGGACCCA [G54A C63A]; Fulfilled
GGCCGGCAUGGUCCCAGCCUCCUCGCUGGCGCCGGCUGGGCAACAUUCCGAGGGGACUAUCCCCUCGGUAAUGGCGAAUGGGACCCA [C58U G59A]; Fulfilled
GGCCGGCAUGGUCCCAGCCUCCUCGCCGGCUCCGGCUGGGCAACAUUCCGAGGGGACCGUCCCCUCGGUAAUGGCGAAUGGGACCCA [U27C G31U]; Not fulfilled
GGCCGGCAUGGUCCCAGCCUCCUCGCUGGCGCCGGCUGGGCAACAUUGCGAGGGGACCGUCCCGUCGGUAAUGGCGAAUGGGACCCA [C48G C64G]; Fulfilled
GGCCGGCAUGGUCCCAGCCUCCUCGCUGGCGCCGGCUGGGCAACAUUCCGAGGGGACCGUCCCCUCGGUAAAGACGAAUGGGACCCA [U72A G74A]; Fulfilled
GGCCGGCAUGGUCCCAGCCUCCGCGCUGGCGCCGGCUGGGCAACAUUCCUAGGGGACCGUCCCCUCGGUAAUGGCGAAUGGGACCCA [U23G G50U]; Fulfilled
GGCCGGCAUGGUCCCAGCCUCCUCGCUGGCGCCGGUUGGGCAACAUUCCGAGGGGGCCGUCCCCUCGGUAAUGGCGAAUGGGACCCA [C36U A56G]; Fulfilled
GGCCGGCAUGGUCCCAGCCUCCUCGCUGGCGCCGGCUGGGCAAUAUUCCGAGGGGACCGUCCCCUCGGUAAUGGCGAAUGGGACGCA [C44U C85G]; Fulfilled
